The values you see were collected from PubChem BioAssay AID179.

System: CEM cells HIV-1 protection, formazan growth assay
Assay: NCI AIDS Antiviral Assay
Details: measured here: growth of uninfected CEM cells
Where a SMILES comes first, the peptide text is derived from it. [ ]: non-standard residue; d: D form. The star is where a group is joined. ξ: configuration not given here. X13 = COc1ccc(C(N*)c2ccc(OC)cc2)cc1; NMeF = CN[C@@H](Cc1ccccc1)C(=O)O; NMeD = CN[C@@H](CC(=O)O)C(=O)O; NMeV = CN[C@H](C(=O)O)C(C)C; ξNMeV = CNC(C(=O)O)C(C)C; Boc = CC(C)(C)OC(=O)*; ξNMeA = CNC(C)C(=O)O; ξV = CC(C)C(N)C(=O)O
observable: IC50 (µM)

* O=C(CN1CCOCC1)CC(O)(C(F)(F)F)C(F)(F)F | 95.5
* CC(=O)Nc1ccc(C(=O)OCC2OC(n3cc(C)c(=O)[nH]c3=O)CC2N=[N+]=[N-])cc1 (centres undefined) | 38.9
* COc1ccc(C(NC(=O)C[C@@H](C(=O)N(C)C(C)C(=O)O)N(C)C(=O)[C@@H]2CCCN2C(=O)[C@H](C(C)C)N(C)C(=O)C(C(C)C)N(C)C(=O)[C@H](Cc2ccccc2)N(C)C(=O)C(NC(=O)OC(C)(C)C)C(C)C)c2ccc(OC)cc2)cc1 (some centres undefined) (Boc-[ξV][NMeF][ξNMeV][NMeV]P[NMeD](X13)[ξNMeA]-OH) | 23.4

----------
System: CEM cells HIV-1 protection, formazan growth assay
Test: NCI AIDS Antiviral Assay
observable: EC50

* CN(/N=C\c1ccc2ccccc2c1)C1=NCCCN1 | > 200 µM
* C[N+](C)(C)CC(=O)N/N=c1\cc(C(=O)Nc2ccc(N=O)cc2C#N)oc2cc(O)ccc12 | > 372 µM
* O=c1[nH]nc(-c2cccc([N+](=O)[O-])c2)[nH]1 | > 200 µM
* Cc1cccc(C=NC23CC4CC(CC(C4)C2)C3)c1 | > 102 µM
* CCOC(=O)Nc1cc(NC(/C=N/NC(C)=O)C(=O)OCC)c(OC)cc1NC(C)=O (stereo unspecified) | > 200 µM
* CC(=O)Nc1ccc(-c2nnc(SCC(=O)Nc3ccccc3)o2)cc1 | > 37.2 µM
* Cc1ccc(S(=O)(=O)N2CCN(C=S)CC2)cc1 | > 91.2 µM
* C=C1CCCCCCCCC/C=C/1SCCCSC | > 200 µM
* CN(C)c1nc(Oc2nc(N(C)C)nc(N(C)C)n2)nc(N(C)C)n1 | > 724 µM
* CC1=C(O)C(=O)C2C(=O)C1C(C)C2c1ccccc1 (stereo unspecified) | > 195 µM
* COc1cc(-c2ccc(Br)[nH]2)[nH]c1C=NCC(C)C | > 200 µM

----------
// reported EC50 per item
Tested on: CEM cells HIV-1 protection, formazan growth assay
Assay: NCI AIDS Antiviral Assay
observable: EC50

- NC1=NS(=O)(=O)Nc2nc(-c3cccs3)[nH]c21: > 200 µM
- CC1=C(C#N)C2C(=C(C)N1)C(N)=Nc1ccccc12 (stereo not given): > 200 µM
- O=C1Nc2ccccc2Cn2c1cc1oc(-c3ccccc3)cc12: > 200 µM
- CC(C)(C)C1CCP(=O)(c2ccccc2)CC1 (stereo not given): 0.0631 µM
- COC(=O)[C@H](Cc1ccccc1)NC(=O)NCCN(CCNC(=O)N[C@@H](Cc1ccccc1)C(=O)OC)C(=O)N[C@@H](Cc1ccccc1)C(=O)OC: > 200 µM

----------
System: CEM cells HIV-1 protection, formazan growth assay
Test: NCI AIDS Antiviral Assay
Settings: measured here: growth of uninfected CEM cells
observable: IC50 (µM)

• Nc1nc(Cl)cc(NCC2(CO)CCC(OCc3ccccc3)C2)n1 (centres undefined) = 17.8
• Cc1ccc(/C(O)=C/c2nc3ccc([N+](=O)[O-])cc3nc2/C=C(\O)c2ccc(C)cc2)cc1 = 97.7
• C=CCc1cc2c(cc1COCOCCOCCOCCCC)OCO2 = 44.7
• Cc1ccc(NC(=O)CCC(CC(=O)C(C)(C)C)=NNC(=O)C(=O)NN)cc1C = 2.57
• O=C1C(O)=C(c2ccc(Br)cc2)C(=O)C(O)=C1c1ccc(Br)cc1 = 22.4
• COc1cc2c(cc1OCCCCN1C(=O)c3cccc4cccc(c34)C1=O)N=C[C@@H]1CCCN1C2=O = 3.47
• O=[N+]([O-])c1ccc2c(c1)Sc1ccccc1N2 = 60.3
• COC(=O)c1cc(C(CCl)c2cc(C(=O)OC)c(OC)c(Br)c2C)c(C)c(Br)c1OC = 8.71
• CC(=O)Nc1ccc(C(C2=C(O)c3ccccc3C(=O)C2=O)C2=C(O)c3ccccc3C(=O)C2=O)cc1 = 16.2
• Cc1cc(N(CCC#N)CCC#N)ccc1/C(N=Nc1ccc(C(=O)O)cc1)=N\NC(=O)c1ccccc1 = 13.5
• Sc1ccc(Nc2c3ccccc3nc3ccccc23)cc1 = 14.5
• CCN(CC)CCC(=O)NC1c2ccccc2Oc2ccccc21 = 219
• NNc1nc(Nc2ccccc2)nc(Nc2ccccc2)n1 = 38
• CC(=O)CC(c1ccccc1)c1c(O)c2ccccc2oc1=O (centres undefined) = 372
• CC(=O)C1=C(O)C2(O)C(=O)c3c(c(C)c4ccc(C)c(O)c4c3O)CC2C(N)C1=O (centres undefined) = 3.55
• Cc1ccc(N(C)S(=O)(=O)c2ccccc2)cc1 = 67.6
• Nc1nncc2n[nH]nc12 = 174
• CCCCCCCCCCCCCCC(C(=O)O)S(=O)(=O)O (centres undefined) = 155
• Cc1cc2c(=O)cc(-c3ccncc3)oc2c(C(N)=O)c1C = 70.8
• COC(=O)C1Cc2cc3c(cc2C1=O)CCCC3 (centres undefined) = 66.1
• N#C/C(=C\c1ccc(O)c(O)c1)C(=O)NCCc1ccc(O)c(O)c1 = 30.9
• C/C(O)=C(/C=N/C(=S)Nc1ccccc1)C(=O)Nc1ccccc1C = 195
• Cc1cc2c(C(C)C)c(O)c(O)c(C=Nc3ccc(C(=O)NCC(=O)O)cc3)c2c(O)c1-c1c(C)cc2c(C(C)C)c(O)c(O)c(C=Nc3ccc(C(=O)NCC(=O)O)cc3)c2c1O = 25.7
• CCOc1ccccc1NC(=O)/C=C1\NC(=O)CS1 = 129
• CCOC(=O)Cc1c(C)c2ccc(OC(C)=O)c(OC(C)=O)c2oc1=O = 36.3

----------
Test system: CEM cells HIV-1 protection, formazan growth assay
Assay: NCI AIDS Antiviral Assay
Settings: measured here: growth of uninfected CEM cells
observable: IC50 (µM)

* CCOP(=S)(NN=C1CCC(C(C)(C)C)CC1)OCC (stereo not drawn) | 89.1
* CC(=O)CN=C(C)NNc1ccc([N+](=O)[O-])cc1[N+](=O)[O-] | 60.3
* CN(C)c1ccc(/C=C(\C#N)c2ccc(Cl)c(Cl)c2)cc1 | 3.63
* Nc1cc2ncnn2c(SCC(=O)N/N=C/C(Br)=C\c2ccccc2)n1 | 7.94
* O=[N+]([O-])/C(C(Cl)=C(Cl)Cl)=C(/Br)SCc1ccccc1 | 0.575
* Cc1c(/C=N/NC(=S)Nc2ccccc2Cl)c(=O)n(-c2ccccc2)n1C | 26.9
* O=C(NCCO)c1c(CN(CCO)CCO)n([O-])c2ccccc2[n+]1=O | 457
* O=C(O)c1ccc(Nc2nc3ccccc3nc2-c2cccs2)cc1 | 60.3
* COc1ccc(NC2CC(C)N(C(=O)c3ccccc3)O2)cc1 (stereo not drawn) | 95.5
* C/C(=N\NC(=S)Nc1ccccc1)[C@H]1C2CCC(C2)C1C/C=C\CCCC(=O)O (stereo partly drawn) | 107
* COc1nc2c(c(=O)[nH]1)N=C(c1ccc(Cl)cc1)CC(c1ccccc1)N2 (stereo not drawn) | 55
* CC(C)NC(=O)OCCN=C1c2ccccc2CCc2ccccc21 | 27.5
* O=C1CC(=O)N(CCc2ccccc2)S(=O)(=O)N1CCc1ccccc1 | 35.5
* CCOc1ccc(/C=C(\Cl)c2ccc(OC)c(OC)c2)cc1 | 191
* CCOC(=O)c1ccc(-c2ccc(Cl)cc2)[nH]1 | 44.7

----------
// reported IC50 per item
System: CEM cells HIV-1 protection, formazan growth assay
Assay: NCI AIDS Antiviral Assay
Details: measured here: growth of uninfected CEM cells
Where a SMILES comes first, the peptide text is derived from it. The star is where a group is joined. Boc = CC(C)(C)OC(=O)*; tBu = CC(C)(C)*
observable: IC50

- COc1cc([N+](=O)[O-])c(S(=O)(=O)O)cc1NS(=O)(=O)c1ccc(C)cc1: > 200 µM
- Nc1cc2nc(=O)cc3n2c(n1)SC3: > 67.6 µM
- CC(OC(C)(C)C)C(NC(=O)C(N)CCCCNC(=O)OC(C)(C)C)C(=O)NC(Cc1ccccc1)C(=O)O (stereo unspecified) (H-Lys(Boc)-Thr(tBu)-Phe-OH; configuration not given here): > 200 µM
- O=C(O)c1cc2ccccc2c(=O)s1: > 331 µM
- O=[N+]([O-])c1ccc(SSc2ccc([N+](=O)[O-])cc2Cl)c(Cl)c1: 10 µM
- NC(=S)/N=C(/c1nc2ccc(Cl)cc2[nH]c1=O)C(O)c1ccccc1Cl (stereo unspecified): 589 µM
- CCC1Sc2cc(OC)cc(N)c2NC1=O (stereo unspecified): > 200 µM
- CC1(O)c2ccccc2[P+](C)(c2ccccc2)c2ccccc21 (stereo unspecified): 29.5 µM
- COc1ccc(C2CC3(c4ccccc4)ON=C(c4ccccc4)N3c3ccccc3S2)cc1 (stereo unspecified): > 200 µM
- CC(C)(C)N/N=C(\Cc1occc(=O)c1O)C(=O)Nc1ccc([N+](=O)[O-])cc1[N+](=O)[O-]: > 158 µM
- CCCCNC(C)(C)C(SSSC(C)=O)c1ccco1 (stereo unspecified): 56.2 µM
- COc1ccc2c(c1)CC1(O)COc3cc(OC)ccc3C1O2 (stereo unspecified): 67.6 µM
- O=C(O)C(Cc1ccc(O)cn1)NC(=O)C(F)(F)F (stereo unspecified): > 200 µM
- O=c1oc2ccc(O)cc2c2ccccc12: 38 µM
- CC(C)(C)C(=O)O/C=C\OC1CCCC1(c1ccccc1)c1ccccc1 (stereo unspecified): 9.55 µM
- O=C1C(=Cc2ccc(F)cc2)C(=O)c2ccccc21: > 10.7 µM
- COc1cc(-c2coc3cc(O)ccc3c2=O)c(O)c(OC)c1OC: 72.4 µM
- COc1cccc(CCNc2c(C#N)c3n(c4ccccc4[n+]3C)c3ncccc23)c1: 1 µM
- O=C(O)c1ccc(CS(=O)(=O)c2ccc([N+](=O)[O-])cc2)c([N+](=O)[O-])c1: 324 µM
- CS(=O)(=O)OCCn1cnc2nc(NC(=O)c3ccccc3)[nH]c(=O)c21: > 182 µM
- CC(C)(C)OC(=O)C1C(=O)C(C(=O)OC(C)(C)C)C23CCCCC12C(C(=O)OC(C)(C)C)C(=O)C3C(=O)OC(C)(C)C (stereo unspecified): > 30.2 µM
- COc1ccc(Cn2c3ccc([N+](=O)[O-])cc3c(=O)n2Cc2ccccn2)cc1: > 200 µM
- C[C@]12CCC3C(CC[C@H]4C/C(=C/C#N)CC[C@]34C)C1CC/C2=C\C#N (stereo partly specified): 25.7 µM
- O=C([N-]/N=C/c1ccccc1)c1ccccc1[O-].[OH3+].[Zn+2]: 166 µM
- CC(C)(C)c1cc(C(=O)[O-])c([OH2+])c(C(C)(C)C)c1.CC(C)(C)c1cc(C(=O)[O-])c([OH2+])c(C(C)(C)C)c1.[Mn+2]: 33.9 µM
- CC1CN=C(Cc2ccc(NC(=O)c3ccc(C(=O)Nc4ccc(CC5=NCC(C)N5)cc4)cc3)cc2)N1 (stereo unspecified): 110 µM
- O=C(O)CN1C(=O)CN=C(c2ccccn2)c2cc(Cl)ccc21: > 759 µM
- CC1(C)O[C@H](C(=O)O)[C@@H](C(=O)O)O1: > 200 µM
- Nc1nc2c(ncn2CC2COC(CO)O2)c(=O)[nH]1 (stereo unspecified): > 468 µM
- CC(=O)OCC1OC(c2c(OC(C)=O)cc(C)c3c(=O)cc(/C(C(C)=O)=C(\C)O)oc23)C(OC(C)=O)C(OC(C)=O)C1OC(C)=O (stereo unspecified): > 200 µM
- O=C(Nc1cccc2c1C(=O)c1c(NC(=O)c3ccccc3)ccc(Nc3cccc4c3C(=O)c3ccccc3C4=O)c1C2=O)c1ccccc1: 120 µM
- OCC1CC2c3[nH]c4ccccc4c3CCN2C1 (stereo unspecified): > 282 µM
- Nc1nnc(-c2ccco2)c(-c2ccco2)n1: 186 µM
- OC1NC2Nc3ccccc3NC2NC1O (stereo unspecified): > 200 µM
- O=C(CC(NC(=O)C(F)(F)F)C(=O)O)OCc1ccccc1 (stereo unspecified): > 200 µM
- CC(=O)OC1COC(N2c3ccccc3[C@@H]3CCc4c([nH]c5ccccc45)[C@@H]32)C(OC(C)=O)C1OC(C)=O (mixture of isomers): 19.5 µM
- COc1ccccc1N1C(=O)CSC1=Nc1ccccc1: > 112 µM
- O=[N+]([O-])/C(Cl)=C(\NCCO)C(Cl)=C(Cl)Cl: 63.1 µM
- Cc1cc(N(CCCl)CCCl)ccc1N=Nc1ccccc1: 19.5 µM
- CCn1c(N)c(N=O)c(=O)[nH]c1=O: > 200 µM
- COc1ccc(C[C@H](N)C(=O)N2C[C@H](CO)C[C@H](n3cnc4c(N(C)C)ncnc43)C2)cc1: 81.3 µM
